Here the recorded HepSE_Combined Scores is given for each entry.
# Test system: Hepatotoxicity;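 note: combined hepatic side effect score as listed in the training data of the Drug Induced Liver Injury Prediction System (DILIps)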
Kindly provide the number alone.

// below: answered compounds
>  <COMPOUND>
CC(=O)OCC(CCn1cnc2cnc(N)nc21)COC(C)=O

>  <HepSE_Combined Scores>
3

$$$$
>  <COMPOUND>
CC1(C)O[C@@H]2C[C@H]3[C@@H]4C[C@H](F)C5=CC(=O)C=C[C@]5(C)[C@@]4(F)[C@@H](O)C[C@]3(C)[C@]2(C(=O)CO)O1 [FLUOCINOLONE ACETONIDE]

>  <HepSE_Combined Scores>
0

$$$$
>  <COMPOUND>
O=C1CN=C(c2ccccn2)c2cc(Br)ccc2N1

>  <HepSE_Combined Scores>
0

$$$$
>  <COMPOUND>
C[N+](C)(C)CC(=O)O

>  <HepSE_Combined Scores>
0

$$$$

# ---- query compound ----
[ask] Bench note: what HepSE_Combined Scores did CC1=C(C(=O)O)N2C(=O)[C@@H](NC(=O)[C@H](N)c3ccc(O)cc3)[C@H]2SC1 show?
[reply] 1
